Exercise: state measured T4 uptake inhibition BMC20 (M), [CI] for each of the molecules provided.
Target or system: OATP1C1 (Homo sapiens)
Construct: host or cells: CHO-K1
Sequence (Q9NYB5 1-712): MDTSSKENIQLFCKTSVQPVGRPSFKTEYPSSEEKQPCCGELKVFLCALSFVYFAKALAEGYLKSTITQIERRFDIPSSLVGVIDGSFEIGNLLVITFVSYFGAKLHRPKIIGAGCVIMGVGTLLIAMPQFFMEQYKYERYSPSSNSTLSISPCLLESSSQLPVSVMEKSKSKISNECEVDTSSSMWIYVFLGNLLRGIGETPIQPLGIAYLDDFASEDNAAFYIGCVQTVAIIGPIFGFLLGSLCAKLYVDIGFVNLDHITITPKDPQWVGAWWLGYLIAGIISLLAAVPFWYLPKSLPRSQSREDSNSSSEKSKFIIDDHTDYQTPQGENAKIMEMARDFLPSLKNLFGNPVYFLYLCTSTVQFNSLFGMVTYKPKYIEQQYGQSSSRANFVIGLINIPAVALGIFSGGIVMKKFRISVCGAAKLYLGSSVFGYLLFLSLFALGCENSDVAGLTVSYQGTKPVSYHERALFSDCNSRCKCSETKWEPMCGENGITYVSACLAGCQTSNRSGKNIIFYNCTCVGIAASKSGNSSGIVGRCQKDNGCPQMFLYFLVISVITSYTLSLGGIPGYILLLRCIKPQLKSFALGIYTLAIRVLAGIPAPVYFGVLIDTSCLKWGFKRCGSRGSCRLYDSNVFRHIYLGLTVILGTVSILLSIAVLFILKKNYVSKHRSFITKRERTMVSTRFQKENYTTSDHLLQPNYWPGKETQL
Assay name: CHO-K1 OATP1C1 TH uptake assay with 125I-T4 tracer
Type: cell-based
Details: concentration that inhibits 125I-T4 uptake by 20%; 10 nM T4, 30 min; brackets = 95% CI

Checklist item: T4 uptake inhibition BMC20 (M), [CI] tested on OATP1C1 (Homo sapiens), entry CC(C)(c1ccc(O)cc1)c1ccc(O)cc1 [Bisphenol A, Bisphenol-A] , value?
1.90E−05 [1.28E−05; 2.83E−05] M

So what T4 uptake inhibition BMC20 (M), [CI] did CC(C)(c1cc(Br)c(O)c(Br)c1)c1cc(Br)c(O)c(Br)c1 [Tetrabromobisphenol A, Tetrabromobisphenol-A] get with OATP1C1 (Homo sapiens)?
2.03E−09 [1.28E−09; 3.22E−09] M

# query: T4 uptake inhibition BMC20 (M), [CI] | item O=S(=O)(O)C(F)(F)C(F)(F)C(F)(F)C(F)(F)C(F)(F)C(F)(F)C(F)(F)C(F)(F)F [Perfluorooctanesulfonic acid] | system: OATP1C1 (Homo sapiens)
4.03E−07 [2.32E−07; 7.00E−07] M

// fetch OATP1C1 (Homo sapiens) T4 uptake inhibition BMC20 (M), [CI] for Oc1ccc(C(c2ccc(O)cc2)(C(F)(F)F)C(F)(F)F)cc1 [Bisphenol AF, Bisphenol-AF]
3.52E−06 [2.03E−06; 6.11E−06] M

Test system OATP1C1 (Homo sapiens); read-out T4 uptake inhibition BMC20 (M), [CI]; what value for CC1(C)C(/C=C/C=C/C=C/C=C2\N(CCCCS(=O)(=O)O)c3ccc4ccccc4c3C2(C)C)=[N+](CCCCS(=O)(=O)[O-])c2ccc3ccccc3c21 [Indocyanine green, reference compound] ?
3.60E−07 [2.17E−07; 5.97E−07] M

Field: T4 uptake inhibition BMC20 (M), [CI] (OATP1C1 (Homo sapiens)). Entry: CCCN(CCC)S(=O)(=O)c1ccc(C(=O)O)cc1 [Probenecid, reference compound]
6.66E−07 [1.24E−07; 3.57E−06] M

Form field: T4 uptake inhibition BMC20 (M), [CI] recorded for O=C1OC(c2ccc(O)c(S(=O)(=O)O)c2)(c2ccc(O)c(S(=O)(=O)O)c2)c2c(Br)c(Br)c(Br)c(Br)c21 [Bromosulfophthalein, reference compound] with OATP1C1 (Homo sapiens) (enter value)
8.72E−07 [5.70E−07; 1.33E−06] M

Report T4 uptake inhibition BMC20 (M), [CI] for COc1cc([C@@H]2Oc3c(O)cc([C@H]4Oc5cc(O)cc(O)c5C(=O)[C@@H]4O)cc3[C@H]2CO)ccc1O [Silychristin, reference compound] tested on OATP1C1 (Homo sapiens).
3.78E−06 [1.54E−06; 9.27E−06] M

I'm curious: which T4 uptake inhibition BMC20 (M), [CI] was measured for O=C(O)C(F)(F)C(F)(F)C(F)(F)C(F)(F)C(F)(F)C(F)(F)C(F)(F)F [Perfluorooctanoic acid] tested on OATP1C1 (Homo sapiens)?
2.94E−06 [1.04E−06; 8.36E−06] M

# value lookup — system OATP1C1 (Homo sapiens), readout T4 uptake inhibition BMC20 (M), [CI], item Oc1ccc(Cc2ccc(O)cc2)cc1 [Bisphenol F, Bisphenol-F]
4.49E−05 [2.80E−05; 7.20E−05] M

For the record O=S(=O)([O-])c1cc(S(=O)(=O)O)ccc1C1=c2cc3c4c(c2Oc2c1cc1c5c2CCCN5CCC1)CCC[N+]=4CCC3 [Sulforhodamine 101, reference compound] , what value of T4 uptake inhibition BMC20 (M), [CI] is listed for OATP1C1 (Homo sapiens)?
2.86E−06 [1.29E−06; 6.34E−06] M

Record lookup: for OATP1C1 (Homo sapiens), what T4 uptake inhibition BMC20 (M), [CI] belongs to O=c1c(O)c(-c2ccc(O)c(O)c2)oc2cc(O)cc(O)c12 [Quercetin] ?
3.94E−08 [4.41E−09; 3.51E−07] M

Recall the recorded T4 uptake inhibition BMC20 (M), [CI] for O=C(O)CSc1nnc(Br)n1-c1ccc(C2CC2)c2ccccc12 [Lesinurad, reference compound] with OATP1C1 (Homo sapiens) and state it.
4.34E−07 [1.97E−07; 9.56E−07] M

Provide value of T4 uptake inhibition BMC20 (M), [CI] for this record tested with OATP1C1 (Homo sapiens): CO[C@H]1/C=C/O[C@@]2(C)Oc3c(C)c(O)c4c(O)c(c(/C=N/N5CCN(C)CC5)c(O)c4c3C2=O)NC(=O)/C(C)=C\C=C\[C@H](C)[C@H](O)[C@@H](C)[C@@H](O)[C@@H](C)[C@H](OC(C)=O)[C@@H]1C [Rifampicin, reference compound]
4.06E−05 [2.58E−05; 6.38E−05] M
